Let's look at some binders and their measured SPOT intensity.
Biological target: T1, Nbp2, Q12163
T1 sequence (Q12163 103-180, looked up): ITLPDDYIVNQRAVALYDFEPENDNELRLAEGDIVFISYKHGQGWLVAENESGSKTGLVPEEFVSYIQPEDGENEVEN
Assay: SPOT array
Details: median of control spots 357

binder: KNRKNLPTIPIRLSG
SPOT intensity: 47

binder: YSRKKLPVVLSKMTL
SPOT intensity: 0

binder: LRIKRKPVQTFFEFI
SPOT intensity: 46

binder: APKHAPPPVPNETDN
SPOT intensity: 0

binder: KRNRLKILLPFLEQS
SPOT intensity: 22

binder: LLIRWLILMPLVGSR
SPOT intensity: 215

binder: DAPASKPSVPPRNYF
SPOT intensity: 2

binder: TTNRGPPPLPPRANV
SPOT intensity: 0

binder: LEFRAILFIPKRAPF
SPOT intensity: 53

binder: RKLRTVPGVPLIHLT
SPOT intensity: 0

binder: PLQSKIPMLPSRRTM
SPOT intensity: 12

binder: NRARYLPQNPDIIAG
SPOT intensity: 1

binder: KTKQQKPAIPQKKSF
SPOT intensity: 0

binder: RTRRRPPPPPIPSTQ
SPOT intensity: 107

binder: TPTSGPPLLPPRNTM
SPOT intensity: 0
